# assayTarget: Liver carboxylesterase 1 (Homo sapiens, UniProt P23141)
# Sequence (P23141 whole entry): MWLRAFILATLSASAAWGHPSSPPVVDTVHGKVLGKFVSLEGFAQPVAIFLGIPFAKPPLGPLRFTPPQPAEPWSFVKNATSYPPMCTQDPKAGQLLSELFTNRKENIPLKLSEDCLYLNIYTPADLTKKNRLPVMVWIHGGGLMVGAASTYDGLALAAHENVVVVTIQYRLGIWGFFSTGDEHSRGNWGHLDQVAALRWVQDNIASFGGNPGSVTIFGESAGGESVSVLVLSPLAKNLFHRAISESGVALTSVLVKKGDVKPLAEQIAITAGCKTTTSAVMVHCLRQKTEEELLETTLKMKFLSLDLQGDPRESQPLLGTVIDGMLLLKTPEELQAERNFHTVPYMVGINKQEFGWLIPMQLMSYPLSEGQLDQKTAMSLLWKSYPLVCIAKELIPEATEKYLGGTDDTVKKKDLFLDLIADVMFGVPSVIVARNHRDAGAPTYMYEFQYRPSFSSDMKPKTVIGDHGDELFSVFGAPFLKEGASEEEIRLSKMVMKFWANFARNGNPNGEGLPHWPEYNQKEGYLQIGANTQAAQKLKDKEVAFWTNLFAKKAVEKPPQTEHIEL
# protocolNotes: Specific activity (hydrolysis) by purified carboxylesterase isozyme HU1 against microsomes in human liver
# label = condition met if Activity < 2 nmol/min/mg else condition not met

Solved cases below.
CCCCCCCCCCCCCCCCCCCC(=O)Oc1ccc2nc3c(cc2c1)Cn1c-3cc2c(c1=O)COC(=O)[C@]2(O)CC = condition met
CCCCCCCCCCCCCCCCCC(=O)Oc1ccc2nc3c(cc2c1)Cn1c-3cc2c(c1=O)COC(=O)[C@]2(O)CC = condition met
CCCCCCCCCCCC(=O)Oc1ccc2nc3c(cc2c1)Cn1c-3cc2c(c1=O)COC(=O)[C@]2(O)CC = condition not met
CCCCCCCCCCCCCCCC(=O)Oc1ccc2nc3c(cc2c1)Cn1c-3cc2c(c1=O)COC(=O)[C@]2(O)CC = condition met

Turning now to a further record.
Inquiry: For CCCCCCCCCC(=O)Oc1ccc2nc3c(cc2c1)Cn1c-3cc2c(c1=O)COC(=O)[C@]2(O)CC , is the recorded Activity below the cut-off of 2 nmol/min/mg?
Reply text: condition not met

* * *

# Test system: Liver carboxylesterase 1 (Sus scrofa)
# protocolNotes: Specific activity (hydrolysis) by purified carboxylesterase isozyme P1 against microsomes in pig liver
With a cut-off of 9 nM/mg/min, any Activity strictly below it is called 1.0; any Activity meeting it or above is called 0.0.

CCCCCCCCCCCCCCCCCCCC(=O)Oc1ccc2nc3c(cc2c1)Cn1c-3cc2c(c1=O)COC(=O)[C@]2(O)CC = 1.0
CCCCCCCCCC(=O)Oc1ccc2nc3c(cc2c1)Cn1c-3cc2c(c1=O)COC(=O)[C@]2(O)CC = 0.0
CCCCCCCCCCCCCCCCCC(=O)Oc1ccc2nc3c(cc2c1)Cn1c-3cc2c(c1=O)COC(=O)[C@]2(O)CC = 1.0

Now look at this entry.
Inquiry: Activity strictly < 9 nM/mg/min for this compound? CCCCCCCCCCCC(=O)Oc1ccc2nc3c(cc2c1)Cn1c-3cc2c(c1=O)COC(=O)[C@]2(O)CC
Reply text: 0.0

* * *

The entries below are paired with their reported log10(Activity).
# assayTarget: Carboxylesterase 1E (Rattus norvegicus)
# Sequence (Q63108 whole entry): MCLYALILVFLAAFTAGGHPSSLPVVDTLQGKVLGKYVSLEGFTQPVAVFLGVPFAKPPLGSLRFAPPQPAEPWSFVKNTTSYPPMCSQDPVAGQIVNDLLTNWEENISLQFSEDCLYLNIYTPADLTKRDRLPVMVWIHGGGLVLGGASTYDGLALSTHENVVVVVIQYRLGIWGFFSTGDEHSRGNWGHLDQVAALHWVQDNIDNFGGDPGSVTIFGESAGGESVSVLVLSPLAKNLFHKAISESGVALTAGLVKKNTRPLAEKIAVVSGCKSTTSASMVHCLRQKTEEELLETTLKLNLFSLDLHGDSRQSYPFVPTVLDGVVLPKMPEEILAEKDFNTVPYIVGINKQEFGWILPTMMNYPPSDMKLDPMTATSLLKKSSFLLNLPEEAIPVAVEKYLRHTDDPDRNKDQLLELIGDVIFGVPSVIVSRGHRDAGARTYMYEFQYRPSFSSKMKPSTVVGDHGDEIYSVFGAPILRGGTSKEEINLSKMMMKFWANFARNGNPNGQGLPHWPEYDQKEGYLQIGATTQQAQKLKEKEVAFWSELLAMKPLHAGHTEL
# protocolNotes: Specific activity (hydrolysis) by purified carboxylesterase isozyme RH1 against microsomes in rat liver
Values are log10 of Activity in nmol/min/mg.

Before answering, review these 5 worked examples.
CCc1c2c(nc3ccc(OC(=O)N4CCC(N5CCCCC5)CC4)cc13)-c1cc3c(c(=O)n1C2)COC(=O)[C@]3(O)CC = -0.59
CCCCCCCCCCCCCCCCCCCC(=O)Oc1ccc2nc3c(cc2c1)Cn1c-3cc2c(c1=O)COC(=O)[C@]2(O)CC = -0.74
CCCCCCCCCCCC(=O)Oc1ccc2nc3c(cc2c1)Cn1c-3cc2c(c1=O)COC(=O)[C@]2(O)CC = 1.28
CCCCCCCCCCCCCCCC(=O)Oc1ccc2nc3c(cc2c1)Cn1c-3cc2c(c1=O)COC(=O)[C@]2(O)CC = 0.37
CCCCCCCCCCCCCCCCCC(=O)Oc1ccc2nc3c(cc2c1)Cn1c-3cc2c(c1=O)COC(=O)[C@]2(O)CC = -0.16

# evaluate next
The recorded log10(Activity) for entry CCCCCCCCCC(=O)Oc1ccc2nc3c(cc2c1)Cn1c-3cc2c(c1=O)COC(=O)[C@]2(O)CC equals 1.24

Reference source for all entries: ChEMBL document CHEMBL1130755
